run.description: small-molecule microarray binders of probe aDKK1, primary screen, biochemical, biotinylated probe, 635/667 nm fluorescence (AID 1099);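 further: score merges 667nm spot fluorescence with signal to noise across triplicate slides; reference of the scale not given here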
condition.parameters: higher = more signal
Parameter composite z-score: see the listing below.

compound	composite z-score
CC1CC/C=C\[C@H]2OC34C=CCN(CCN5CCOCC5)C(=O)[C@H]3N(C(CO)C(C)C)C(=O)[C@@H]4C2C(=O)O1 (stereo partly specified)	-0.155
Cc1ccc(S[C@]2(C(=O)NCc3ccccc3)CC(=O)N(Cc3ccccc3Cl)[C@@H]2c2ccc(CO)cc2)cc1	0.169
CCOC(=O)C1=CCC(c2cccn2C(=O)OC(C)(C)C)N(S(=O)(=O)c2ccc(C)cc2)C1 (stereo unspecified)	0.484
COc1cccc(C)c1NC(=O)O[C@H]1[C@H](OC(=O)Nc2ccccc2)[C@@H](OC(=O)Nc2ccccc2)[C@@H](OC)O[C@@H]1CO	0.266
O=C1O[C@H](c2ccccc2)[C@H](c2ccccc2)N2[C@H]1[C@@H](C(=O)N1CCCCCCC1)[C@]1(C(=O)Nc3ccc(C#CCCO)cc31)[C@H]2c1ccc(O)cc1	2.97
COc1ccc(NN2C(C(O)c3ccccc3)C=CC3C(=O)N(C4CCCCC4)C(=O)C32)cc1 (stereo unspecified)	0.535

Data credit: PubChem BioAssay
